test.name: NCI Yeast Anticancer Drug Screen. Data for the mec2-1 strain (AID 157)
run.parameters: S. cerevisiae mec2-1 strain, at 5.0 µM (retest, dose inferred, filed as 0.5), hits give high values
The panel holds about 79,000 compounds, 15% with a hit somewhere; the sample as a whole holds those more often.
measured.attribute: growth inhibition (%)
Write the answer as a number in %, unit excluded.

Below, each entry is followed by its recorded growth inhibition result.
Qu. Recorded growth inhibition of O=[N+]([O-])/C=C/c1cc2c(cc1Br)OCO2 , please.
Ans. 53

Qu. Recorded growth inhibition of N#Cc1cc(N(CCCl)CCCl)c([N+](=O)[O-])cc1[N+](=O)[O-] , please.
Ans. -43

Qu. Recorded growth inhibition of c1ccc([Te][Te]c2ccccc2)cc1 , please.
Ans. 22

Qu. Recorded growth inhibition of CCN(CC)CC.CCOc1ccc(NC(=O)N=C=[N-])cc1.[CH-]1CCCCC1.[CH-]1CCCCC1.[CH-]1CCCCC1.[Cl-].[Sn+4] , please.
Ans. 100

Qu. Recorded growth inhibition of CCOC(=O)C1C2OC(=O)C(C(=O)C2CN(CCCl)CCCl)C1C1CC=C(CC2=CCC(C3C4C(=O)OC(C(CN(CCCl)CCCl)C4=O)C3C(=O)OCC)CC2)CC1 (stereo not given) , please.
Ans. 84

Qu. Recorded growth inhibition of CCN(CC)CCBr , please.
Ans. -9

Qu. Recorded growth inhibition of O=[N+]([O-])c1cc([As](Br)c2ccc(O)c([N+](=O)[O-])c2)ccc1O , please.
Ans. 99

Qu. Recorded growth inhibition of CC1CCOC(=O)/C=C/C=C/C(=O)OC2CC3OC4C5OC5(C)C(O)CC4(COC(=O)C1O)C2(C)C31CO1 (stereo not given) , please.
Ans. 27

Continuing:
Qu. Recorded growth inhibition of O=C(CCl)OCC(Cl)Cl , please.
Ans. 4

Qu. Recorded growth inhibition of CCCCCCCCCCCCCCCCCC(=O)[O][Hg][c]1ccccc1 , please.
Ans. 43
